- assay.context: human gut metagenome, 24 h, 2 µM; further: call rule not given here

>  <compound>
COC(=O)C1=C(C)NC(C)=C(C(=O)OC(C)C)C1c1cccc2nonc12 (stereo unspecified)

>  <Bacterial Biotransformation>
Compound metabolized

$$$$
>  <compound>
CCN(CC)CCOCCOC(=O)C1(c2ccccc2)CCCC1.O=C(O)CC(O)(CC(=O)O)C(=O)O [CARBETAPENTANE CITRATE]

>  <Bacterial Biotransformation>
Compound metabolized

$$$$
>  <compound>
Cc1nc(-c2ccc(OCC(C)C)c(C#N)c2)sc1C(=O)O

>  <Bacterial Biotransformation>
Compound metabolized

$$$$
>  <compound>
O=C(O)COCCN1CCN(C(c2ccccc2)c2ccc(Cl)cc2)CC1 (stereo unspecified)

>  <Bacterial Biotransformation>
Compound metabolized

$$$$
>  <compound>
C=CCN1CC[C@]23c4c5ccc(O)c4O[C@H]2C(=O)CC[C@@]3(O)[C@H]1C5

>  <Bacterial Biotransformation>
Compound NOT metabolized

$$$$
>  <compound>
COc1ccccc1OCC(O)COC(N)=O (stereo unspecified)

>  <Bacterial Biotransformation>
Compound NOT metabolized

$$$$
>  <compound>
CC(CN(C)C)CN1c2ccccc2CCc2ccccc21.O=C(O)/C=C\C(=O)O (stereo unspecified) [TRIMIPRAMINE MALEATE]

>  <Bacterial Biotransformation>
Compound metabolized

$$$$
>  <compound>
C[C@@H]1CC[C@H]2[C@@H](C)C(=O)O[C@@H]3O[C@@]4(C)CC[C@@H]1[C@]32OO4

>  <Bacterial Biotransformation>
Compound metabolized

$$$$
>  <compound>
CC(C)NCC(O)c1ccc(NS(C)(=O)=O)cc1 (stereo unspecified)

>  <Bacterial Biotransformation>
Compound NOT metabolized

$$$$
>  <compound>
Cc1ccccc1N1C(=O)c2cc(S(N)(=O)=O)c(Cl)cc2NC1C (stereo unspecified)

>  <Bacterial Biotransformation>
Compound metabolized

$$$$
>  <compound>
CCCCCOC(=O)Nc1nc(=O)n([C@@H]2O[C@H](C)[C@@H](O)[C@H]2O)cc1F

>  <Bacterial Biotransformation>
Compound metabolized

$$$$
>  <compound>
CN/C(=N/CCSCc1nc[nH]c1C)NC#N

>  <Bacterial Biotransformation>
Compound metabolized

$$$$
>  <compound>
O=c1n(CCCN2CCN(c3cccc(Cl)c3)CC2)nc2ccccn12

>  <Bacterial Biotransformation>
Compound metabolized

$$$$
>  <compound>
CN(C(=O)CN(CCO)CC(=O)N(C)C(C)(C)Cc1ccccc1)C(C)(C)Cc1ccccc1

>  <Bacterial Biotransformation>
Compound metabolized

$$$$
>  <compound>
COC1=CC(=O)C[C@@H](C)[C@]12Oc1c(Cl)c(OC)cc(OC)c1C2=O

>  <Bacterial Biotransformation>
Compound metabolized

$$$$
>  <compound>
CC(C)(C#N)c1cc(Cn2cncn2)cc(C(C)(C)C#N)c1

>  <Bacterial Biotransformation>
Compound metabolized

$$$$

###

- assay.context: human gut metagenome, 24 h, 2 µM
measurement.kind: Bacterial Biotransformation

>  <compound>
CCCc1nc2c(C)cc(-c3nc4ccccc4n3C)cc2n1Cc1ccc(-c2ccccc2C(=O)O)cc1

>  <measurement.kind>
Bacterial Biotransformation

>  <reported>
Compound metabolized

$$$$
>  <compound>
Cc1ccc(/C(=C\CN2CCCC2)c2ccccn2)cc1

>  <measurement.kind>
Bacterial Biotransformation

>  <reported>
Compound NOT metabolized

$$$$
>  <compound>
NC12CC3CC(CC(C3)C1)C2

>  <measurement.kind>
Bacterial Biotransformation

>  <reported>
Compound NOT metabolized

$$$$
>  <compound>
Cc1ccnc2c1NC(=O)c1cccnc1N2C1CC1

>  <measurement.kind>
Bacterial Biotransformation

>  <reported>
Compound metabolized

$$$$
>  <compound>
CCOC(=O)[C@H](CCc1ccccc1)N[C@@H](C)C(=O)N1[C@H](C(=O)O)C[C@H]2CCCC[C@@H]21

>  <measurement.kind>
Bacterial Biotransformation

>  <reported>
Compound metabolized

$$$$
>  <compound>
CCN1CCCC1CNC(=O)c1cc(S(N)(=O)=O)ccc1OC (centres undefined) [SULPIRIDE]

>  <measurement.kind>
Bacterial Biotransformation

>  <reported>
Compound NOT metabolized

$$$$
>  <compound>
C=CCN1CC[C@]23c4c5ccc(O)c4O[C@H]2C(=O)CC[C@@]3(O)[C@H]1C5

>  <measurement.kind>
Bacterial Biotransformation

>  <reported>
Compound NOT metabolized

$$$$
>  <compound>
Nc1ccc(/N=N/c2ccccc2)c(N)n1

>  <measurement.kind>
Bacterial Biotransformation

>  <reported>
Compound metabolized

$$$$
>  <compound>
COCCc1ccc(OCC(O)CNC(C)C)cc1.COCCc1ccc(OCC(O)CNC(C)C)cc1.O=C(O)C(O)C(O)C(=O)O (centres undefined) [METOPROLOL TARTRATE]

>  <measurement.kind>
Bacterial Biotransformation

>  <reported>
Compound NOT metabolized

$$$$

###

- run.description: The drug is tested on Z-018 corresponding to pig gut metagenome with ENA study accession number: PRJEB37062 and ENA sample accession number: ERS12561817 for biotransformation under anaerobic condition. The drug concentrations were measured over 9 timepoints collected between 0 and 24 hours of incubation by liquid-chromatography-coupled mass spectrometry (LC–MS)
- assay.context: 2 µM

>  <molecule>
O=c1n(CCCN2CCN(c3cccc(Cl)c3)CC2)nc2ccccn12

>  <Bacterial Biotransformation>
Compound NOT metabolized

$$$$
>  <molecule>
CCCCC(=O)N(Cc1ccc(-c2ccccc2-c2nnn[nH]2)cc1)[C@H](C(=O)O)C(C)C

>  <Bacterial Biotransformation>
Compound NOT metabolized

$$$$
>  <molecule>
CCc1nc(N)nc(N)c1-c1ccc(Cl)cc1

>  <Bacterial Biotransformation>
Compound NOT metabolized

$$$$
>  <molecule>
O=C(O)COCCN1CCN(C(c2ccccc2)c2ccc(Cl)cc2)CC1 (stereo not given)

>  <Bacterial Biotransformation>
Compound NOT metabolized

$$$$
>  <molecule>
Cc1nc2n(c(=O)c1CCN1CCC(c3noc4cc(F)ccc34)CC1)CCCC2

>  <Bacterial Biotransformation>
Compound metabolized

$$$$
>  <molecule>
COc1ccccc1N1CCN(CC(O)COc2cccc3ccccc23)CC1 (stereo not given)

>  <Bacterial Biotransformation>
Compound NOT metabolized

$$$$
>  <molecule>
CC(C)NCC(O)c1ccc(NS(C)(=O)=O)cc1 (stereo not given)

>  <Bacterial Biotransformation>
Compound NOT metabolized

$$$$
>  <molecule>
CN1CCC(=C2c3ccccc3CCc3cccnc32)CC1.O=C(O)/C=C\C(=O)O.O=C(O)/C=C\C(=O)O [AZATADINE MALEATE]

>  <Bacterial Biotransformation>
Compound NOT metabolized

$$$$
>  <molecule>
O=C(NCc1ccccc1)OCCO [BURAMATE]

>  <Bacterial Biotransformation>
Compound NOT metabolized

$$$$
>  <molecule>
Nc1ccc(/N=N/c2ccccc2)c(N)n1

>  <Bacterial Biotransformation>
Compound metabolized

$$$$
>  <molecule>
COC(=O)[C@H]1[C@H]2C[C@@H]3c4[nH]c5cc(OC)ccc5c4CCN3C[C@H]2C[C@@H](OC(=O)c2cc(OC)c(OC)c(OC)c2)[C@@H]1OC

>  <Bacterial Biotransformation>
Compound NOT metabolized

$$$$
>  <molecule>
CC[C@H](C)C(=O)O[C@H]1C[C@@H](C)C=C2C=C[C@H](C)[C@H](CC[C@@H]3C[C@@H](O)CC(=O)O3)[C@H]21

>  <Bacterial Biotransformation>
Compound metabolized

$$$$
>  <molecule>
CC(C)(C#N)c1cc(Cn2cncn2)cc(C(C)(C)C#N)c1

>  <Bacterial Biotransformation>
Compound NOT metabolized

$$$$
>  <molecule>
CCN(CC)CCNC(C(=O)OCCC(C)C)c1ccccc1.Cl.Cl (stereo not given)

>  <Bacterial Biotransformation>
Compound metabolized

$$$$
>  <molecule>
NS(=O)(=O)c1cc2c(cc1Cl)N=C(CSCc1ccccc1)NS2(=O)=O [BENZTHIAZIDE]

>  <Bacterial Biotransformation>
Compound NOT metabolized

$$$$
>  <molecule>
CCOC(=O)[C@H](CCc1ccccc1)N[C@@H](C)C(=O)N1[C@H](C(=O)O)C[C@H]2CCCC[C@@H]21

>  <Bacterial Biotransformation>
Compound metabolized

$$$$
>  <molecule>
OCCOCCN1CCN(C2=Nc3ccccc3Sc3ccccc32)CC1

>  <Bacterial Biotransformation>
Compound metabolized

$$$$
>  <molecule>
COc1c(C)c2c(c(O)c1C/C=C(\C)CCC(=O)OCCN1CCOCC1)C(=O)OC2 [MYCOPHENOLATE MOFETIL]

>  <Bacterial Biotransformation>
Compound metabolized

$$$$
>  <molecule>
CCN(CC)C(=O)/C(C#N)=C/c1cc(O)c(O)c([N+](=O)[O-])c1

>  <Bacterial Biotransformation>
Compound metabolized

$$$$
>  <molecule>
CN/C(=N/CCSCc1nc[nH]c1C)NC#N

>  <Bacterial Biotransformation>
Compound metabolized

$$$$
>  <molecule>
Nc1c2c(nc3ccccc13)CCCC2

>  <Bacterial Biotransformation>
Compound NOT metabolized

$$$$
>  <molecule>
CNC(=C[N+](=O)[O-])NCCSCc1ccc(CN(C)C)o1

>  <Bacterial Biotransformation>
Compound metabolized

$$$$
>  <molecule>
CC(C)c1nc(CN(C)C(=O)N[C@H](C(=O)N[C@@H](Cc2ccccc2)C[C@H](O)[C@H](Cc2ccccc2)NC(=O)OCc2cncs2)C(C)C)cs1

>  <Bacterial Biotransformation>
Compound metabolized

$$$$
>  <molecule>
c1ccc([C@H]2CN3CCSC3=N2)cc1

>  <Bacterial Biotransformation>
Compound metabolized

$$$$
>  <molecule>
Cc1ccc(S(=O)(=O)NC(=O)NN2CC3CCCC3C2)cc1 (stereo not given) [GLICLAZIDE]

>  <Bacterial Biotransformation>
Compound metabolized

$$$$
>  <molecule>
CC(=O)OCC(=O)[C@@]1(O)[C@@H](C)C[C@H]2[C@@H]3CCC4=CC(=O)C=C[C@]4(C)[C@@]3(F)[C@@H](O)C[C@@]21C [BETAMETHASONE ACETATE]

>  <Bacterial Biotransformation>
Compound NOT metabolized

$$$$
>  <molecule>
CN(C)CC(c1ccc(O)cc1)C1(O)CCCCC1.O=C(O)CCC(=O)O (stereo not given) [DESVENLAFAXINE SUCCINATE]

>  <Bacterial Biotransformation>
Compound NOT metabolized

$$$$
>  <molecule>
COc1c2occc2cc2ccc(=O)oc12

>  <Bacterial Biotransformation>
Compound metabolized

$$$$
>  <molecule>
CCN1CCCC1CNC(=O)c1cc(S(N)(=O)=O)ccc1OC (stereo not given) [SULPIRIDE]

>  <Bacterial Biotransformation>
Compound metabolized

$$$$
>  <molecule>
N#Cc1ccc(C(c2ccc(C#N)cc2)n2cncn2)cc1

>  <Bacterial Biotransformation>
Compound NOT metabolized

$$$$
>  <molecule>
CCCCCOC(=O)Nc1nc(=O)n([C@@H]2O[C@H](C)[C@@H](O)[C@H]2O)cc1F

>  <Bacterial Biotransformation>
Compound metabolized

$$$$
>  <molecule>
COCCc1ccc(OCC(O)CNC(C)C)cc1.COCCc1ccc(OCC(O)CNC(C)C)cc1.O=C(O)C(O)C(O)C(=O)O (stereo not given) [METOPROLOL TARTRATE]

>  <Bacterial Biotransformation>
Compound NOT metabolized

$$$$
>  <molecule>
CCC1(c2ccc(N)cc2)CCC(=O)NC1=O (stereo not given) [AMINOGLUTETHIMIDE]

>  <Bacterial Biotransformation>
Compound metabolized

$$$$
>  <molecule>
CNCCC(Oc1ccc(C(F)(F)F)cc1)c1ccccc1 (stereo not given)

>  <Bacterial Biotransformation>
Compound NOT metabolized

$$$$
>  <molecule>
COc1cc2c(c(OC)c1OC)-c1ccc(OC)c(=O)cc1[C@@H](NC(C)=O)CC2

>  <Bacterial Biotransformation>
Compound NOT metabolized

$$$$
